Tested on: A549
Experiment: NCI tumour cell line growth inhibition, 48 h
Active and inactive are the calls of the source. Cut-off read from the data, not from the text of the source: active = GI50 up to about 1.1 µM and inactive = higher.
Kindly state GI50 for each of the entries shown.

[[record]]
compound = "Cc1cccc2cc3ccc4ccccc4c3cc12"
tgt = "A549"
value_kind = "GI50"
reading = "37.1 µM (inactive)"

[[record]]
compound = "O=NN(CCCl)C(=O)NCc1ccc[n+]([O-])c1"
tgt = "A549"
value_kind = "GI50"
reading = "93.8 µM (inactive)"

[[record]]
compound = "CCOCC(=O)N[C@H]1CCc2cc(OC)c(OC)c(OC)c2-c2ccc(OC)c(=O)cc21"
tgt = "A549"
value_kind = "GI50"
reading = "0.0211 µM (active)"

[[record]]
compound = "Cc1cccc(N2C(=O)C3ON(C(C(N)=O)c4ccccc4)C(c4c5ccccc5c(Cl)c5ccccc45)C3C2=O)c1C (centres undefined)"
tgt = "A549"
value_kind = "GI50"
reading = "14.3 µM (inactive)"

[[record]]
compound = "N#Cc1cc2c(cc1Cl)Sc1nccn1S2(=O)=O"
tgt = "A549"
value_kind = "GI50"
reading = "12.8 µM (inactive)"

[[record]]
compound = "CCn1c(=O)c2c(=O)[nH][nH]c2c2ccccc21"
tgt = "A549"
value_kind = "GI50"
reading = "> 100 µM (inactive)"

[[record]]
compound = "Cc1ccccc1OCC(COC(=O)Nc1ccccc1)OC(=O)Nc1ccccc1 (centres undefined)"
tgt = "A549"
value_kind = "GI50"
reading = "32.7 µM (inactive)"

[[record]]
compound = "COc1ccc(C2C3COc4ccccc4C3=NN2c2ccccc2)cc1 (centres undefined)"
tgt = "A549"
value_kind = "GI50"
reading = "> 100 µM (inactive)"

[[record]]
compound = "O=C(NC(=O)c1cc(-c2ccccc2)n[nH]1)c1ccccc1"
tgt = "A549"
value_kind = "GI50"
reading = "> 100 µM (inactive)"

[[record]]
compound = "CCOC(=O)c1c(-c2ccc(Cl)cc2)c(C#N)c(=S)n(C2OC(COC(C)=O)C(OC(C)=O)C(OC(C)=O)C2OC(C)=O)c1-c1ccccc1 (centres undefined)"
tgt = "A549"
value_kind = "GI50"
reading = "> 100 µM (inactive)"


Could you tell me GI50 for each of these compounds? They are listed below.
1. CCCCCCN1C(=O)CC(=O)N(CCCCCC)S1(=O)=O
2. Nc1ncnc2c1ccn2C/C=C\CO

1: 35.2 µM (inactive); 2: > 100 µM (inactive)

Could you tell me GI50 for each of these compounds? They are listed below.
1. O=C1c2ccccc2C(=O)[C@@]23O[C@@]12C1(Oc2cccc4cccc(c24)O1)[C@@H]1O[C@@H]1[C@@H]3O
2. C=C(CO)[C@H]1CC/C(C)=C/CC/C(C)=C/C/C=C(\C)[C@H](O)C1
3. [N-]=[N+]=C(C(=O)CN1CCCC1=O)S(=O)(=O)c1ccccc1
4. C/C(CC(O)(C(F)(F)Cl)C(F)(F)Cl)=N\Nc1ccccc1
5. CCCCCCCCCCCCCC(=O)OCC1OC(=O)C(O)C1O (centres undefined)
6. CC1=CC(=O)/C(=C/NC(=S)c2ccccc2)C(=O)O1

18.4 µM (inactive)
42 µM (inactive)
> 100 µM (inactive)
37.2 µM (inactive)
> 100 µM (inactive)
> 100 µM (inactive)

Reported GI50, compound O=[N+]([O-])c1ccc(Cl)cc1/C=N/C12CC3CC(CC(C3)C1)C2 : ____
> 96.8 µM (inactive)
